# Test system: mouse carcinogenicity bioassay, TD50 from CPDB
# assaySummary: DSSTox (CPDBAS) Carcinogenic Potency Database Summary Mouse Bioassay Results
# experimentalParameters: TD50_Mouse_Note: TD50 is harmonic mean of more than one positive test; TargetSites_Mouse_Female: clitoral gland; lung
experimentalReadout: Potency

INSERT INTO measurements (samplesmiles, experimentalreadout, result) VALUES
  ('CCCCN(N)C=O', 'Potency', '0.166 mmol/kg/day');

====

Potency: recorded values
# Tested on: mouse carcinogenicity bioassay, TD50 from CPDB
# assaySummary: DSSTox (CPDBAS) Carcinogenic Potency Database Summary Mouse Bioassay Results
# experimentalParameters: TargetSites_Mouse_Female: stomach
experimentalReadout: Potency

INSERT INTO measurements (compound, result) VALUES
  ('C/C=C/Cl', '0.066 mmol/kg/day'),
  ('CC(Cl)C=O (stereo unspecified)', '0.139 mmol/kg/day'),
  ('CC(=O)Nc1nnc(-c2ccc([N+](=O)[O-])o2)s1', '0.0265 mmol/kg/day'),
  ('NNc1nc(-c2ccc([N+](=O)[O-])o2)cs1', '0.0725 mmol/kg/day'),
  ('Nc1nc(-c2ccc([N+](=O)[O-])o2)cs1', '0.0373 mmol/kg/day'),
  ('O=C(Nc1nc(-c2ccc([N+](=O)[O-])o2)cs1)C(F)(F)F', '0.0325 mmol/kg/day');
